These measurements were taken from patent US20180066066A1.

Target or system: T1, human HER3/ErbB3 extracellular domain (human, UniProt P21860 20-643)
T1 construct: extracellular domain; the range 1-643 of M34309 is printed only for the immunogen; also called Human HER3 ECD; recombinant human HER3
T1 sequence (P21860 20-643): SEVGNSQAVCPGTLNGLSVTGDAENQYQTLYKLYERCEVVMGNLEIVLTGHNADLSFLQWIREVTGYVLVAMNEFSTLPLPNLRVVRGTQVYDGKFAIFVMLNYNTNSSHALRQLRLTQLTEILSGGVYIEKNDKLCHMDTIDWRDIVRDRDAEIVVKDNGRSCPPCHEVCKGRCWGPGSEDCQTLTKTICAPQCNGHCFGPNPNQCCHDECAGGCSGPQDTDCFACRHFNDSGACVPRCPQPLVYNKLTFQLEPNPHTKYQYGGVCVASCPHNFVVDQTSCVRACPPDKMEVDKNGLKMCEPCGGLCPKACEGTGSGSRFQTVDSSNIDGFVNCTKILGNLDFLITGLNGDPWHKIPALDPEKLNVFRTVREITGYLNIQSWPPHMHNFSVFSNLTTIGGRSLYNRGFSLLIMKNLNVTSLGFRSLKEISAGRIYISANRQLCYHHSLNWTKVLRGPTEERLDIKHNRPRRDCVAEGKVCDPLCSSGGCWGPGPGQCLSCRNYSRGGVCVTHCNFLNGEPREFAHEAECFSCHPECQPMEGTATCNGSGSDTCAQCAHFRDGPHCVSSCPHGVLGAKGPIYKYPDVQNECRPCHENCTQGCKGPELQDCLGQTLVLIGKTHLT
Experimental details: ELISA on human HER3 ECD
EC50 values by entry
# unit: ng/mL | format: bare number

Observe how each entry below is paired with its result.
According to the records, this binder Chi46 (antibody, V domains shown, also called parental rabbit/human Fc chimera of Rab46) VH: EEQLVESGGGLVQPEGSLTLTCTASGFSFSASYYIYWVRQAPGKGLEGIAYITGDDDKRTYYANWAKGRFTISKTSTTVTLQMTSLTAADTATYFCTRNLPDELWGPGTLVTVSS VL: QAVVTQTPSSVSAAVGGTVTISCQSSESVYSYKNLAWYQQKPGQPPRLLIWQASRLSSGVSSRFSGSGSGTQFTLTISGVQCDDAATYYCQGTYYSSAWDFVFGGGTEVMVE displays EC50 of 2.7

For reference, reported EC50 for HER3-hMab-A9 (antibody, V domains shown) VH: QVQLVESGGGLVQPGGSLRLSCSASGFSFSASYYIYWVRQAPGKGLEYIAYITGDDDKRTYYANWAKGRFTISRDNSKNTVYLQMNSLRAEDTAVYYCTRNLPDELWGPGTLVTVSS VL: DIQMTQTPSTLSASVGDRVTITCQSSESVYSYKNLAWYQQKPGKPPKLLIWQASRLSSGVPSRFSGSGSGTEFTLTISSLQPDDFATYYCQGTYYSSAWDFVFGGGTKVEIK stands at 3.1

---
HER3-hMab-A10 (antibody, V domains shown) VH: QVQLVESGGGLVQPGGSLRLSCSASGFSFSASYYIYWVRQAPGKGLEYIAYITGDDDKRTYYANWAKGRFTISRDTSKNTVYLQMNSLRAEDTAVYYCTRNLPDELWGPGTLVTVSS VL: DIQMTQTPSTLSASVGDRVTITCQSSESVYSYKNLAWYQQKPGKPPKLLIWQASRLSSGVPSRFSGSGSGTEFTLTISSLQPDDFATYYCQGTYYSSAWDFVFGGGTKVEIK yielded EC50 of 2.6
